Consider the following molecules and their measured -Log K readings.
- tested target: Histamine H2 receptor (Cavia porcellus)
- experimental protocol: Compound was tested in vitro for its Histamine H2 receptor activity on guinea pig atrium.
- Assay type: functional, tissue-based
- experimental setup: Cardiac atrium

Before answering, review these 4 worked examples.
CCCC#Cc1ccc(OCCCc2c[nH]cn2)cc1 = < 4.7
CC#Cc1ccc(OCCCc2c[nH]cn2)cc1 = < 4.7
C#Cc1ccc(OCCCc2c[nH]cn2)cc1 = < 4.8
CC(C)(C)C#Cc1ccc(OCCCc2c[nH]cn2)cc1 = < 4.6

# evaluate next
Lab request: please report -Log K under test system Histamine H2 receptor (Cavia porcellus) for `C[Si](C)(C)C#Cc1ccc(OCCCc2c[nH]cn2)cc1`
< 4.6

====

Property: ED50; scope: individual molecules
- tested target: Histamine H3 receptor (Mus musculus) (UniProt P58406)
- Sequence (P58406 whole entry): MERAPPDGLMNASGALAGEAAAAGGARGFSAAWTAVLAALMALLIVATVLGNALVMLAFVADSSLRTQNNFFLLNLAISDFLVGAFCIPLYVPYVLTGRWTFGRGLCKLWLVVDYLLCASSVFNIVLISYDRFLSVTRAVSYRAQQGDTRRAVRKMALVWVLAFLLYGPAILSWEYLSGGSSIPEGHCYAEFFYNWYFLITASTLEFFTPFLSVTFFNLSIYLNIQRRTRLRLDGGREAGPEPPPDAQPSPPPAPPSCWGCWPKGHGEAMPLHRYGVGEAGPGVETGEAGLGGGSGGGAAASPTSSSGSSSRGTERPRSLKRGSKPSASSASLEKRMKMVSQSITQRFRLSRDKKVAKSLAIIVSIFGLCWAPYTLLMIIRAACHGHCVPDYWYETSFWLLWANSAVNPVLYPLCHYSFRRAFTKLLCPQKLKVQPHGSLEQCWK
- experimental protocol: In vivo antagonist activity at Histamine H3 receptor was screened by measuring the effect on brain histamine turnover after oral application to mice.
- Format: functional, organism-based
Give a bare numeral; the unit mg/kg is implied.

CCCC#Cc1ccc(OCCCc2c[nH]cn2)cc1 = 2.2
C[Si](C)(C)C#Cc1ccc(OCCCc2c[nH]cn2)cc1 = 1.1
C#Cc1ccc(OCCCc2c[nH]cn2)cc1 = 0.12
CC#Cc1ccc(OCCCc2c[nH]cn2)cc1 = 1.3

Now consider the entry below.
Form field - read-out: ED50; system: Histamine H3 receptor (Mus musculus) (UniProt P58406); submitted item: `CC(C)(C)C#Cc1ccc(OCCCc2c[nH]cn2)cc1`
2.2

====

- tested target: Histamine H3 receptor (Rattus norvegicus, UniProt Q9QYN8)
- Sequence (Q9QYN8 whole entry): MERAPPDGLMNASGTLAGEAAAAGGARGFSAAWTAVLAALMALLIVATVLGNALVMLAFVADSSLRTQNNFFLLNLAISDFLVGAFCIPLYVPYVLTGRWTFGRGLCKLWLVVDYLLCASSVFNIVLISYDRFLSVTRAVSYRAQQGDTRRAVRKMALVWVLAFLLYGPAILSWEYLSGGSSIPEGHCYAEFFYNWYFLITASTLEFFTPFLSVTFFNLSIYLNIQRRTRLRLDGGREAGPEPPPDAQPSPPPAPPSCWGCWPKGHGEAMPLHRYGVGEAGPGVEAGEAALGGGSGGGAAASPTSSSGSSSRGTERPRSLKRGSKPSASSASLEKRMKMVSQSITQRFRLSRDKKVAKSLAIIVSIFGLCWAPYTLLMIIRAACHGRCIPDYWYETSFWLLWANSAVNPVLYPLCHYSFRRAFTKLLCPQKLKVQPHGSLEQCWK
- experimental protocol: In vitro antagonist potency at Histamine H3 receptor measured as K+-evoked [3H]histamine release from synaptosomes of rat cerebral cortex.
Binary call on Ki with cut-off 40 nM: strictly below means met, and equality or higher means not met.

is_below(Ki, 40 nM) for `C#Cc1ccc(OCCCc2cnc[nH]2)cc1` ?
met

Please state whether Ki is below 40 nM for `CC#Cc1ccc(OCCCc2c[nH]cn2)cc1`
met

Report whether reported Ki is lower than 40 nM (strictly) for `CC(C)(C)C#Cc1ccc(OCCCc2cnc[nH]2)cc1`
not met

Strictly below 40 nM in Ki? `C[Si](C)(C)C#Cc1ccc(OCCCc2c[nH]cn2)cc1`
met

Ki strictly < 40 nM for this molecule? `CCCC#Cc1ccc(OCCCc2cnc[nH]2)cc1`
not met
